Just for reference, BigSolDB 2.1 is where these values come from.

Details: in ethylene glycol, 283.11 K
Test Readout: solubility (mole fraction)
// print number alone

Fill in: solubility (mole fraction) of "CO/N=C(\C(=O)O)c1csc(N)n1" is ___
0.00129

###

Conditions: in methanol, 298.26 K
Test Readout: solubility (mole fraction)
// print number alone

Fill in: solubility (mole fraction) of "CO/N=C(\C(=O)O)c1csc(N)n1" is ___
0.00043

###

Conditions: in ethylene glycol, 288.68 K
Test Readout: solubility (mole fraction)
// print number alone

Fill in: solubility (mole fraction) of "CO/N=C(\C(=O)O)c1csc(N)n1" is ___
0.00152

###

Settings: in ethanol, 298.17 K
Test Readout: solubility (mole fraction)

Fill in: solubility (mole fraction) of "CO/N=C(\C(=O)O)c1csc(N)n1" is ___
0.000124

###

Conditions: in water, 293.22 K
Test Readout: solubility (mole fraction)
// print number alone

Fill in: solubility (mole fraction) of "CO/N=C(\C(=O)O)c1csc(N)n1" is ___
0.000483

###

Conditions: in ethylene glycol, 303.46 K
Test Readout: solubility (mole fraction)
// print number alone

Fill in: solubility (mole fraction) of "CO/N=C(\C(=O)O)c1csc(N)n1" is ___
0.0023

###

Details: in methanol, 293.36 K
Test Readout: solubility (mole fraction)
// print number alone

Fill in: solubility (mole fraction) of "CO/N=C(\C(=O)O)c1csc(N)n1" is ___
0.00038

###

Conditions: in methanol, 283.75 K
Test Readout: solubility (mole fraction)

Fill in: solubility (mole fraction) of "CO/N=C(\C(=O)O)c1csc(N)n1" is ___
0.000293

###

Conditions: in ethanol, 303.33 K
Test Readout: solubility (mole fraction)
// print number alone

Fill in: solubility (mole fraction) of "CO/N=C(\C(=O)O)c1csc(N)n1" is ___
0.000151

###

Settings: in ethanol, 293.23 K
Test Readout: solubility (mole fraction)
// print number alone

Fill in: solubility (mole fraction) of "CO/N=C(\C(=O)O)c1csc(N)n1" is ___
0.000101

###

Conditions: in water, 288.48 K
Test Readout: solubility (mole fraction)
// print number alone

Fill in: solubility (mole fraction) of "CO/N=C(\C(=O)O)c1csc(N)n1" is ___
0.000416
